These data points were gathered from ChEMBL document CHEMBL5236652.

# Method: Drug uptake in ICR mouse brain at 10 mg/kg,sc and measured at 60 mins by LC-MS analysis
# Assay type: ADME, organism-based
# Assay context: read-out: Drug uptake
Readout name: concentration at 1 h
Just so you know, I need the unit written after the number.

Enquiry: Quick check: concentration at 1 h of `CO[C@H]1[C@H](O[C@@H]2C=C3[C@H](O)C[C@@]4(O)[C@@H]5[C@@H](O)[C@H](O)[C@H]([C@H](C)CC[C@H](CO[C@@H]6OC[C@@H](O)[C@H](O)[C@H]6O)C(C)C)[C@@]5(C)CC[C@@H]4[C@@]3(C)CC2)OC[C@@H](O)[C@@H]1O` ?
Return: 30 ng/g

###

# Method: Drug uptake in ICR mouse blood at 10 mg/kg,sc and measured upto 120 mins by LC-MS analysis
# Type: ADME, organism-based
# Assay context: read-out: Drug uptake
Readout name: concentration at 2 h (ng/mL)
Give your result in ng/mL as a bare value.

Enquiry: Quick check: concentration at 2 h of `CO[C@H]1[C@H](O[C@@H]2C=C3[C@H](O)C[C@@]4(O)[C@@H]5[C@@H](O)[C@H](O)[C@H]([C@H](C)CC[C@H](CO[C@@H]6OC[C@@H](O)[C@H](O)[C@H]6O)C(C)C)[C@@]5(C)CC[C@@H]4[C@@]3(C)CC2)OC[C@@H](O)[C@@H]1O` ?
Return: 7.7

###

# Method: Drug uptake in ICR mouse brain at 10 mg/kg,sc and measured upto 120 mins by LC-MS analysis
# Format: ADME, organism-based
# Assay context: read-out: Drug uptake
Readout name: concentration at 2 h (ng/g)
Give your result in ng/g as a bare value.

Enquiry: Quick check: concentration at 2 h of `CO[C@H]1[C@H](O[C@@H]2C=C3[C@H](O)C[C@@]4(O)[C@@H]5[C@@H](O)[C@H](O)[C@H]([C@H](C)CC[C@H](CO[C@@H]6OC[C@@H](O)[C@H](O)[C@H]6O)C(C)C)[C@@]5(C)CC[C@@H]4[C@@]3(C)CC2)OC[C@@H](O)[C@@H]1O` ?
Return: 5
